- assay-text: ESI positive response factor (isotope-corrected peak area per molar concentration) in SFC/ESI/HRMS (area units per M); higher = higher ionization efficiency;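 also: standards in acetonitrile/water run in triplicate on a zwitterionic HILIC column, CO2–methanol gradient containing 20 mmol/L ammonium acetate, postcolumn makeup flow, Orbitrap full-scan detection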
- setup-conditions: 0.122 µM

# molecule, ESI positive response factor
rows = [
    ("CON(C)C(=O)Nc1ccc(Br)cc1 [Metobromuron]", "1.95e+17"),
    ("C[NH2+]C[C@H](O)CO [3-Methylamino-1,2-propanediol]", "6.39e+16"),
    ("CC(=O)C1=C(C)C2CC3(C1)C(C)CCC3C2(C)C (centres undefined) [Methyl cedryl ketone]", "1.43e+16"),
    ("CN(C)C(=N)N=C(N)N [Metformin]", "9.59e+16"),
    ("NCCCC[C@H](N[C@@H](CCc1ccccc1)C(=O)O)C(=O)N1CCC[C@H]1C(=O)O [Lisinopril]", "1.43e+16"),
    ("Nc1nc(N)nc(N)n1 [Melamine]", "1.7e+16"),
    ("OCC[C@@H]1CCCC[NH2+]1 [2-Piperidineethanol]", "1.07e+17"),
    ("O=C(O)[C@@H]1C[C@@H](O)CN1 [L-Hydroxyprolin]", "2.76e+15"),
    ("CON(C)C(=O)Nc1ccc(Cl)c(Cl)c1 [Linuron]", "4.05e+16"),
    ("CCSC(=O)N1CCCCCC1 [Molinate]", "1.94e+16"),
    ("CSc1nnc(C(C)(C)C)c(=O)n1N [Metribuzin]", "1.54e+17"),
    ("CC(C)(CO)[C@@H](O)C(=O)NCCCO [Panthenol]", "6.16e+16"),
    ("Cc1cccc(C)c1N(Cn1cccn1)C(=O)CCl [Metazachlor]", "2.62e+17"),
    ("N[C@@H](Cc1ccccc1)C(=O)O [L-Phenylalanin]", "1.51e+16"),
]

* * *

Listing of recorded ESI positive response factor by entry.
- assay-text: ESI positive response factor (isotope-corrected peak area per molar concentration) in SFC/ESI/HRMS (area units per M); higher = higher ionization efficiency
- setup-conditions: 0.122 µM

# molecule, ESI positive response factor
records = [
    ("Cc1cc(=O)oc2cc(O)ccc12 [4-Methylumbelliferone]", "7.61e+16"),
    ("N=c1nc(N2CCCCC2)cc(N)n1O [Minoxidil]", "1.69e+17"),
    ("COc1ccc2c(c1)c(CC(=O)O)c(C)n2C(=O)c1ccc(Cl)cc1 [Indomethacin]", "1.45e+16"),
    ("N=C(N=C(N)N)N1CCOCC1 [Moroxydine]", "1.92e+17"),
    ("N[C@@H](Cc1ccc(O)cc1)C(=O)O [L-Tyrosine]", "2.67e+15"),
    ("CN(C)C(=O)Nc1ccc(Cl)cc1 [Monuron]", "3.07e+16"),
]

* * *

- assay-text: ESI positive response factor (isotope-corrected peak area per molar concentration) in SFC/ESI/HRMS (area units per M); higher = higher ionization efficiency
- setup-conditions: 0.35 µM

# compound, ESI positive response factor
rows = [
    ("Nc1nc(N)c2nc(CO)cnc2n1 [2,4-Diamino-6-(hydroxymethyl)pteridine]", "3.92e+16"),
    ("CCN(CC)C(=O)c1cccc(C)c1 [DEET]", "4.74e+17"),
    ("Nc1ccnc(=O)[nH]1 [Cytosine]", "2.81e+15"),
    ("COC(=O)NS(=O)(=O)c1ccc(N)cc1 [Asulam]", "1.46e+16"),
    ("CC(=O)OCC[N+](C)(C)C [Acetylcholine]", "2.13e+17"),
    ("OCCN1C[C@H](O)[C@@H](O)[C@H](O)[C@H]1CO [Miglitol]", "1.34e+16"),
]

* * *

Listing of recorded ESI positive response factor by entry.
- assay-text: ESI positive response factor (isotope-corrected peak area per molar concentration) in SFC/ESI/HRMS (area units per M); higher = higher ionization efficiency
- setup-conditions: 0.35 µM

# molecule, ESI positive response factor
records = [
    ("CC(C)C[C@H](CN)CC(=O)O", "1.8e+16"),
    ("CN(C)C(=O)C(c1ccccc1)c1ccccc1", "1.13e+17"),
    ("CN1C(C)(C)CC(O)CC1(C)C", "4.69e+17"),
    ("COC(=O)C1=CCCN(C)C1", "3.77e+17"),
    ("C=CC(=O)OCC[N+](C)(C)C [[2-(Acryloyloxy)ethyl]trimethylammonium]", "6.32e+16"),
    ("C[N+](C)(C)CCCl [Chlormequate]", "1.85e+17"),
    ("COc1ccc(O)c(C(C)(C)C)c1 [Butylated hydroxyanisole]", "3.32e+15"),
    ("CCN[C@H]1C[C@H](C)S(=O)(=O)c2sc(S(N)(=O)=O)cc21 [Dorzolamide]", "1.22e+16"),
    ("O=C(O)Cc1ccccc1Nc1c(Cl)cccc1Cl", "3.71e+15"),
    ("COC(=O)N(OC)c1ccccc1COc1ccn(-c2ccc(Cl)cc2)n1", "5.43e+17"),
]

* * *

- assay-text: ESI positive response factor (isotope-corrected peak area per molar concentration) in SFC/ESI/HRMS (area units per M); higher = higher ionization efficiency
- setup-conditions: 0.035 µM
Listing of recorded ESI positive response factor by entry.
readout-kind: ESI positive response factor

# compound, readout-kind, result-value
records = [
    ("CC(=O)OCC[N+](C)(C)C [Acetylcholine]", "ESI positive response factor", "1.98e+17"),
    ("CC(O)CN(CC(C)O)CC(C)O (configuration not stated) [triisopropanolamine]", "ESI positive response factor", "1.75e+17"),
    ("COc1cc(Cc2cnc(N)nc2N)cc(OC)c1OC [Trimethoprim]", "ESI positive response factor", "3.52e+17"),
    ("Nc1ccc(S(=O)(=O)c2ccc(N)cc2)cc1 [Dapson]", "ESI positive response factor", "8.29e+16"),
    ("NC(=O)c1c(Cl)cccc1Cl [2,6-Dichlorbenzamid]", "ESI positive response factor", "1.78e+16"),
    ("CN(C)CCOC(c1ccccc1)c1ccccc1 [Diphenhydramine]", "ESI positive response factor", "2.23e+17"),
    ("COc1ccc2cc(C(C)C(=O)O)ccc2c1 (configuration not stated) [Naproxen]", "ESI positive response factor", "7.47e+15"),
]

* * *

Listing of recorded ESI positive response factor by entry.
- assay-text: ESI positive response factor (isotope-corrected peak area per molar concentration) in SFC/ESI/HRMS (area units per M); higher = higher ionization efficiency
- setup-conditions: 0.35 µM

# compound, ESI positive response factor
rows = [
    ("CC(C)NCC(O)COc1ccc(CC(N)=O)cc1 (stereo unspecified)", "1.8e+17"),
    ("NC(N)=Nc1nc(CSCCC(N)=NS(N)(=O)=O)cs1", "3.73e+16"),
    ("COc1ccc2cc(C(C)C(=O)O)ccc2c1 (stereo unspecified)", "6.96e+15"),
    ("N#CN=C(N)N [Dicyandiamide]", "4.96e+15"),
    ("CC(O)CN(CC(C)O)CC(C)O (stereo unspecified)", "3.51e+17"),
    ("CC(=O)N1CC(O)C[C@H]1C(=O)O (stereo in doubt) [Trans-1-acetyl-4-hydroxy-L-prolin]", "6.42e+15"),
    ("NC(=O)c1c(Cl)cccc1Cl", "2.46e+16"),
    ("COc1cc(Cc2cnc(N)nc2N)cc(OC)c1OC", "3.46e+17"),
    ("CC(=O)NCCCS(=O)(=O)O [Acamprosate]", "3.14e+15"),
    ("CC(=O)NCCNC(C)=O [N,N'-Ethylenebisacetamide]", "3.89e+16"),
    ("CCOc1nc2cccc(C(=O)O)c2n1Cc1ccc(-c2ccccc2-c2nnn[nH]2)cc1", "8.92e+16"),
    ("CCCCC(CC)CN (stereo unspecified)", "1.94e+16"),
    ("CNC(=O)CSP(=O)(OC)OC [Omethoate]", "3.93e+16"),
    ("CC1=C(C(=O)Nc2ccccc2)SCCO1", "1.1e+17"),
    ("c1ccc2[nH]nnc2c1", "1.37e+16"),
    ("O=c1[nH]sc2ccccc12", "1.55e+16"),
    ("Cc1ccc(NC(=O)N(C)C)cc1Cl", "1.4e+17"),
    ("COc1nc(C)nc(NC(=O)NS(=O)(=O)c2ccccc2Cl)n1", "5.61e+16"),
    ("CCOP(=O)(OCC)OC(=CCl)c1ccc(Cl)cc1Cl", "4.34e+17"),
    ("CC(=O)NCCCCC(N)C(=O)O (stereo unspecified)", "8.93e+15"),
    ("O=S(=O)(O)c1ccc2nc(-c3ccccc3)[nH]c2c1", "3.87e+15"),
]

* * *

Listing of recorded ESI positive response factor by entry.
- assay-text: ESI positive response factor (isotope-corrected peak area per molar concentration) in SFC/ESI/HRMS (area units per M); higher = higher ionization efficiency
- setup-conditions: 0.061 µM
readout-kind: ESI positive response factor

# molecule, readout-kind, result-value
data = [
    ("N[C@@H](Cc1ccc(O)cc1)C(=O)O", "ESI positive response factor", "2.58e+15"),
    ("O=C1NCCCN1", "ESI positive response factor", "3.96e+16"),
    ("C[NH2+]C[C@H](O)CO", "ESI positive response factor", "6.78e+16"),
    ("CC(C)(CO)[C@@H](O)C(=O)NCCCO", "ESI positive response factor", "6.32e+16"),
    ("CN(C)C(=N)N=C(N)N", "ESI positive response factor", "9.71e+16"),
    ("CON(C)C(=O)Nc1ccc(Cl)c(Cl)c1", "ESI positive response factor", "4.29e+16"),
    ("CC1(C)CCC(Cc2ccc(Cl)cc2)C1(O)Cn1cncn1 (configuration not stated)", "ESI positive response factor", "3.16e+17"),
]

Taken from the supplement of paper PMC10326909.
